tested on: HCT-15 colon; experiment: NCI tumour cell line growth inhibition, 48 h
test readout: TGI

compound=CC(=O)Nc1cccc2[nH]c3ccccc3c(=O)c12 reported="42.7 µM"
compound="CCOC(=O)CNC(=O)C(CSCC1C(=O)Nc2ccccc21)NC(=O)CCC(N)C(=O)OCC (stereo not given)" reported="2.53 µM"
compound="N#CNC1=NC(Cc2ccccc2)C(=O)N1CCc1c[nH]c2ccccc12 (stereo not given)" reported="> 100 µM"

Give one value of TGI per listed compound.
1. Clc1ccc(N=C2c3ccccc3CN2c2ccc(Cl)cc2)cc1
2. Cc1cccc(C)c1NC(=O)CCC(=O)NNc1nnc(C)n1N

1: > 100 µM; 2: > 100 µM
